The reported numbers originate from paper PMC4893941.

- Test system: human hCMEC/D3 brain endothelial cell monolayers
- method-summary: BBB permeability across hCMEC/D3 cell monolayers
- Format: in vitro ADME
- protocol-conditions: hCMEC/D3 monolayer, 50 μM in transport buffer, 0–45 min
Below: a set of entries, each annotated with reported Pe (permeability coefficient).

Example entries begin here.
| substance | Pe (permeability coefficient) |
| --- | --- |
| 8-(1,2-Carboranyl-1-thio)-BODIPY [1b] | 16.4 ± 3.3 × 10^−5 cm/s |
| 8-(1,2-Carboranyl-1-thio)-3-chloro-2-ethyl-1,3,6,7-tetramethyl-BODIPY [6b] | 5.4 ± 0.6 × 10^−5 cm/s |
| 8-(1,2-Carboranyl-1-thio)-2-ethyl-1,3,6,7-tetramethyl-BODIPY [5b] | 2.6 ± 0.9 × 10^−5 cm/s |

Could you now look at the following substance, please?
Problem: Name the reported Pe (permeability coefficient) value associated with the substance 8-(1,2-Carboranyl-1-thio)-1,3-dimethyl-BODIPY [2b]
Solution: 6.0 ± 1.0 × 10^−5 cm/s
